// data source = patent EP0211584A1

target: Ca^+2-calmodulin dependent myosin light chain phosphorylation (Bos taurus); assay: Inhibition of myosin light chain phosphorylation (MLCP), Silver et al.; format: biochemical; conditions: 100µM; read-out: Antag. of MLCP (percent inhibition of myosin light chain phosphorylation)

compound: COC(COC(=O)C1=C(C)NC2=C(C(=O)CNC2)C1c1cccc(Cl)c1C)c1ccccc1 (stereo not drawn) [Example 10]
study target: Ca^+2-calmodulin dependent myosin light chain phosphorylation (Bos taurus)
inhibition at 100 µM (%): 75

compound: CC1=C(C(=O)OCCOc2ccccc2)C(c2c(F)c(F)c(F)c(F)c2F)C2=C(CNCC2=O)N1 (single isomer, unassigned; (-)) [Example 3]
study target: Ca^+2-calmodulin dependent myosin light chain phosphorylation (Bos taurus)
inhibition at 100 µM (%): 70

compound: CC1=C(C(=O)OCCc2ccccc2)C(c2c(F)c(F)c(F)c(F)c2F)C2=C(CNCC2=O)N1 (stereo not drawn) [Example 18]
study target: Ca^+2-calmodulin dependent myosin light chain phosphorylation (Bos taurus)
inhibition at 100 µM (%): 77

compound: CC1=C(C(=O)OCC2COc3ccccc3O2)C(c2c(F)c(F)c(F)c(F)c2F)C2=C(CNCC2=O)N1 (stereo not drawn) [Example 14]
study target: Ca^+2-calmodulin dependent myosin light chain phosphorylation (Bos taurus)
inhibition at 100 µM (%): 76

compound: CC1=C(C(=O)OCCOc2ccccc2)C(c2cccc(Cl)c2C)C2=C(CNCC2=O)N1 (stereo not drawn) [Example 17]
study target: Ca^+2-calmodulin dependent myosin light chain phosphorylation (Bos taurus)
inhibition at 100 µM (%): 67

compound: CC1=C(C(=O)OCCOc2ccccc2)C(c2c(F)ccc(C)c2Cl)C2=C(CNCC2=O)N1 (stereo not drawn) [Example 23]
study target: Ca^+2-calmodulin dependent myosin light chain phosphorylation (Bos taurus)
inhibition at 100 µM (%): 56
